biological target: Muscarinic acetylcholine receptor M5 (Rattus norvegicus); assay: rat M5 receptor positive allosteric modulators, dose response, selectivity assay for M5 PAM project, cell-based, rat ortholog, CHO-K1, calcium flux, ACh EC20 (AID 743111); settings: CHO-K1 rat M5, Fluo-4 calcium flux
pEC50: −log10 of the molar value.
assay metric: pEC50

Example cases with answers are listed next.
CCN(Cc1ccccc1C(F)(F)F)C(=O)C1CCN(S(=O)(=O)c2ccc3cn[nH]c3c2)CC1: 5.92
CCN(Cc1ccccc1C(F)(F)F)C(=O)C1CCN(S(=O)(=O)c2ccc3[nH]ncc3c2)CC1: 6.27
CCN(Cc1ccccc1)C(=O)C1CCN(S(=O)(=O)c2ccc3[nH]ncc3c2)CC1: 5.84
CCN(C(=O)C1CCN(S(=O)(=O)c2ccc(-n3cccn3)cc2)CC1)[C@H](C)c1ccccc1: 5.92
CCN(Cc1ccccc1C(F)(F)F)C(=O)C1(F)CCN(S(=O)(=O)c2ccc3[nH]ncc3c2)CC1: 6.15
CCN(C(=O)C1CCN(S(=O)(=O)c2ccc(OC)cc2)CC1)[C@H](C)c1ccccc1: 5.80
CCN(C(=O)C1CCN(S(=O)(=O)c2ccc3cn[nH]c3c2)CC1)[C@H](C)c1ccccc1: 6.07
CCCN(Cc1ccccc1C(F)(F)F)C(=O)C1CCN(S(=O)(=O)c2ccc3[nH]ncc3c2)CC1: 6.49

I: CCN(C(=O)C1CCN(S(=O)(=O)c2ccc3[nH]ncc3c2)CC1)[C@H](C)c1ccccc1
II: CCN(Cc1ccccc1)C(=O)C1CCN(S(=O)(=O)c2ccc3cn[nH]c3c2)CC1
-- ask Compare the recorded pEC50 of I and II ; state which is larger. Mark your answer with the label of the selected entry.
-- reply I
(I: 6.19, II: 5.71)
